target: T1, human C-MET His tagged, monomeric (human, UniProt P08581 25-932); experiment: SPR Biacore, IgG captured, monomeric C-MET-His analyte
T1 construct: also called monomeric human C-MET; biotinylated human C-MET-His
T1 sequence (P08581 25-932): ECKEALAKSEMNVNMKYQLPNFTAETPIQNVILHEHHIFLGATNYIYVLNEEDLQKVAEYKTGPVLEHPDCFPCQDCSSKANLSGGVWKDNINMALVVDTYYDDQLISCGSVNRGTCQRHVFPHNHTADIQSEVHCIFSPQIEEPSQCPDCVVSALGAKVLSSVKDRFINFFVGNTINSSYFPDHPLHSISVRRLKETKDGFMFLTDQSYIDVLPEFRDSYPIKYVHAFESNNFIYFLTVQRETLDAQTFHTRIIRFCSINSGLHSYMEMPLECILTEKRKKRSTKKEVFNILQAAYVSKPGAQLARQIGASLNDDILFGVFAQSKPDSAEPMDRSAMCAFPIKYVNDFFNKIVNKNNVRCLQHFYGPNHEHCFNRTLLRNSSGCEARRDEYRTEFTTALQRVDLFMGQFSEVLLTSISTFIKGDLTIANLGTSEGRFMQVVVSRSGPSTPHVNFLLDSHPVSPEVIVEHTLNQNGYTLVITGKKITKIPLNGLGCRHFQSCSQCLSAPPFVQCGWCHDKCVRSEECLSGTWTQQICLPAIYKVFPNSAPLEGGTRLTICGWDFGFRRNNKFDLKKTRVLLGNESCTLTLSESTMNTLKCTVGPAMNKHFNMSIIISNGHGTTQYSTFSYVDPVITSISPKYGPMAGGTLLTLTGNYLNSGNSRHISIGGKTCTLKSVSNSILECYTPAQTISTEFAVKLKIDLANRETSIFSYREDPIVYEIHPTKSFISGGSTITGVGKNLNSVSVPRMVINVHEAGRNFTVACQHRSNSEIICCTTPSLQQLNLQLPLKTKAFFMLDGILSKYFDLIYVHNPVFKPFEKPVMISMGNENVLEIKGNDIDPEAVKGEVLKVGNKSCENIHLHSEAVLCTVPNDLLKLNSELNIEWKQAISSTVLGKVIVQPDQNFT
metric: koff (s⁻¹)

[[record]]
binder = "h224G11 (humanized 224G11) (antibody, human IgG4, V domains shown, also called Humanized h224G11; 224G11 IgG4(S228P)) VH: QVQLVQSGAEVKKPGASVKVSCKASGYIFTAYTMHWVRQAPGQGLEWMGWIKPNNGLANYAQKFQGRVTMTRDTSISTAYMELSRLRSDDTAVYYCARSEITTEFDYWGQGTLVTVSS VL: DIVMTQSPDSLAVSLGERATINCKSSESVDSYANSFLHWYQQKPGQPPKLLIYRASTRESGVPDRFSGSGSGTDFTLTISSLQAEDVAVYYCQQSKEDPLTFGGGTKVEIK"
result_number = "4.2e-05"

[[record]]
binder = "MH12 (antibody, IgG4, V domains shown) VH: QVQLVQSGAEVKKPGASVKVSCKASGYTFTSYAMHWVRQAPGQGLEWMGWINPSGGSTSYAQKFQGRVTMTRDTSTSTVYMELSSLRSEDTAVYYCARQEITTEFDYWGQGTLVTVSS VL: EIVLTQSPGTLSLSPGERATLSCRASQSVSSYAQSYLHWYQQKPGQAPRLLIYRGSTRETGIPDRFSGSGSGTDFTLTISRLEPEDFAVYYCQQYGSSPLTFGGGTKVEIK"
result_number = 0.00037

